System: KB-3-1
Method description: Cytotoxic Profiling of Annotated Libraries Using Quantitative High-Throughput Screening (AID 1296008); further: nearly all actives have a fitted effect of over 60% in size
Condition notes: Five cell lines viability, CellTiter-Glo ATP luminescence, 48-72 h
Description: Cell-based phenotypic screening is a commonly used approach to discover biological pathways, novel drug targets, chemical probes and high-quality hit-to-lead molecules. […] A pintool (Kalypsys) was used to transfer 23 nL of compound solution to the 1536-well assay plates. […] Plates were left at room temperature for 10 min before imaging the ATP-coupled luminescence using a ViewLux microplate imager (PerkinElmer, Waltham, MA).
Records with an inconclusive call do not appear. Active and inactive are the calls of the source. The call rests on the fitted dose curve; in most records, active means well fitted inhibition curve with a large enough effect; inconclusive means small, poorly fitted or top-dose-only effect; inactive means flat fitted curve, though single readings scatter.
Classes used: active, inactive

CC(=O)O[C@H]1C[C@@H]2[C@]3(CC[C@]4(C)[C@@H](C5(C)CCC(C(C)(C)O)O5)[C@@H](O)C[C@@]24C)C[C@@]32CC[C@H](O[C@@H]3OC[C@@H](O)[C@H](O)[C@H]3O)C(C)(C)[C@H]12 (some centres not stated); inactive
O=C(/C=C/c1ccccc1)OCC1=CC[C@@H]2C(C(=O)O)=CO[C@@H](O[C@@H]3O[C@H](CO)[C@@H](O)[C@H](O)[C@H]3O)[C@H]12; inactive
CON(C)C(=O)N1N=C(c2cc(F)ccc2F)S[C@@]1(CCCN)c1ccccc1; active
CCC(C)C(=O)O[C@@H]1[C@@H](O)[C@@H](O[C@H]2O[C@H](CO)[C@@H](O)[C@H](O)[C@H]2O)O[C@H](CO)[C@H]1O (some centres not stated); inactive
CC(C)c1nc(N(C)S(C)(=O)=O)nc(-c2ccc(F)cc2)c1/C=C/[C@@H](O)C[C@@H](O)CC(=O)O; inactive
CNC(=O)c1ccc(Nc2ncc(C(F)(F)F)c(NCc3nccnc3N(C)S(C)(=O)=O)n2)cc1; active
C=CC(C)(C)O[C@@H]1O[C@H](CO[C@@H]2OC[C@](O)(CO)[C@H]2O)[C@@H](O)[C@H](O)[C@H]1O; inactive
Nc1nonc1C(=Nc1ccc(F)c(Cl)c1)NO; inactive
N[C@H]1C[C@H]1c1ccc(-c2cccc(O)c2)cc1; inactive
C[C@@H]1O[C@@H](O[C@@H]2[C@@H](O)[C@@H](O)[C@H](O[C@@H]3[C@@H](O)[C@@H](O[C@]4(CO)O[C@H](CO)[C@@H](O)[C@@H]4OC(=O)/C=C/c4ccc(O)cc4)O[C@H](CO)[C@H]3OC(=O)/C=C/c3ccc(O)cc3)O[C@H]2C)[C@H](O)[C@H](O)[C@H]1O; inactive
C[C@@H]1O[C@@H](O[C@H]2[C@H](OC(=O)[C@]34CCC(C)(C)C[C@H]3C3=CCC5[C@@]6(C)C[C@H](O)[C@H](O[C@@H]7O[C@H](CO)[C@@H](O[C@@H]8O[C@H](CO)[C@@H](O)[C@H](O)[C@H]8O)[C@H](O)[C@H]7O)[C@@](C)(CO)C6[C@H](O)C[C@@]5(C)[C@]3(C)C[C@H]4O)OC[C@H](O)[C@@H]2O)[C@H](O)[C@H](O)[C@H]1O[C@@H]1OC[C@@H](O)[C@H](O[C@@H]2OC[C@](O)(CO)[C@H]2O)[C@H]1O (some centres not stated); inactive
C/C=C/C1=CC2=C(CO1)C(=O)[C@](C)(O)[C@H](OC(=O)c1c(O)cc(OC)c(O)c1C)C2; inactive

----------
Subject of test: Phospholipid hydroperoxide glutathione peroxidase GPX4 (Homo sapiens) (UniProt P36969)
Sequence (P36969 whole entry, looked up): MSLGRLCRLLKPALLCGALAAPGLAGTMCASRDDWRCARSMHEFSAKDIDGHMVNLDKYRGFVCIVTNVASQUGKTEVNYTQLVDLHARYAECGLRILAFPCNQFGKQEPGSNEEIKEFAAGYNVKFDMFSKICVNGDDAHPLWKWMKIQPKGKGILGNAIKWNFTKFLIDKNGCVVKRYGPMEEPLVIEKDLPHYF
Method description: Primary qHTS Assay for Inhibitors of Recombinant Selenoprotein Glutathione Peroxidase 4 (GPX4) (AID 1845192); further: on the % scale 0 is the no-effect control and ±100 the full control effect; nearly all actives have a fitted effect of over 65% in size
Condition notes: recombinant GPX4, GR-coupled NADPH fluorescence, 15 min; series mostly up to 50 µM
Inconclusive results are not listed. The source made the active and inactive calls. The call rests on the fitted dose curve; in most records, active means well fitted inhibition curve with a large enough effect; inconclusive means small, poorly fitted or top-dose-only effect; inactive means flat fitted curve, though single readings scatter.
Endpoint: activity change, negative = inhibition

COc1cc(/C=C/c2cc(O)cc(O[C@@H]3O[C@H](CO)[C@@H](O)[C@H](O)[C@H]3O)c2)ccc1O; inactive
C[C@@H]1C(=O)O[C@H]2CC34[C@H]5C[C@@H](C(C)(C)C)C36[C@@H](OC(=O)[C@@H]6O)O[C@@]4(C(=O)O5)[C@]21O (stereo partly drawn); inactive
CCc1nc(C(N)=O)c(Nc2ccc(N3CCC(N4CCN(C)CC4)CC3)c(OC)c2)nc1NC1CCOCC1; inactive
CC(C)(O)/C=C1/C(=O)C(C)(C)C(=O)C(C)(C)C1(O)O[C@@H]1O[C@H](COC(=O)c2cc(O)c(O)c(O)c2)[C@@H](O)[C@H](O)[C@H]1O (stereo partly drawn); inactive
COc1ccc([C@@H]2N[C@H](C(=O)O)Cc3c2[nH]c2ccccc32)cc1CN1CCN(c2ccccc2F)CC1; inactive
CCCCCCCCCCCCCC[n+]1ccc(C)cc1; inactive
CCCCS(=O)(=O)Nc1ncnc(OCCOc2ncc(Br)cn2)c1-c1ccc(Br)cc1; inactive
COC1CCCC/C(C)=C/C2C=C(C)C(C)C3C(CC(C)C)NC(=O)C23C(=O)C1 (stereo not drawn); inactive

----------
Test system: AS120
Method description: qHTS profiling for inhibitors of Plasmodium falciparum proliferation (AID 504749); further: nearly all actives have a fitted effect of over 60% in size
Condition notes: P. falciparum in erythrocytes, SYBR Green DNA, 72 h; series mostly up to 28.7 µM
Records with an inconclusive call do not appear. Calls of active or inactive are those of the source. Calls come from the whole dose curve; as a rule, active = well fitted inhibition curve with a large enough effect; inconclusive = small, poorly fitted or top-dose-only effect; inactive = flat fitted curve, though single readings scatter. Peptide text beside a SMILES is read from it.
Outcomes: true = active, false = inactive

CCCCCCC(O)C/C=C/CCCCCCCC(=O)O (configuration not stated); false
CCOC(C)=O; false
Cc1cc(C(=O)NNCc2ccccc2)no1; false
CCCCCC(CC)COC(=O)CC(C(=O)OCC(CC)CCCC)S(=O)(=O)O (configuration not stated); false
CC(=O)N[C@@H](CC(=O)O)C(=O)N[C@@H](CCC(=O)O)C(=O)O (Ac-Asp-Glu-OH); false
CCOc1ccc(N=Nc2ccc(N)cc2N)cc1; false
CCNC(=O)[C@@H]1CCCN1C(=O)[C@H](CCCN=C(N)N)NC(=O)[C@H](CC(C)C)NC(=O)[C@@H](Cc1c[nH]c2ccccc12)NC(=O)[C@H](Cc1ccc(O)cc1)NC(=O)[C@H](CO)NC(=O)[C@H](Cc1c[nH]c2ccccc12)NC(=O)[C@H](Cc1cnc[nH]1)NC(=O)[C@@H]1CCC(=O)N1; true
CCCCCCCCCCCCCC[n+]1ccc(C)cc1; true
O=C(O)CCC(=O)C(=O)O; false
COC(=O)[C@H]1[C@H]2CC3c4[nH]c5ccccc5c4CCN3C[C@@H]2CC[C@@H]1O (some centres not stated); false
CC(O)CO (configuration not stated); false
CCOC(=O)C1=CC2(CC)CCCN3CCc4c(n1c1ccccc41)C32 (configuration not stated); true
Oc1cc(O)c2c(c1)OC(c1ccc(O)c(O)c1)C(O)C2 (configuration not stated); false
C=CCSSSCC=C; false
O=S(=O)(O)O; false
CCOc1ccc2c(c1)C(C)=CC(C)(C)N2; false
COC(=O)C1=C(C#N)NC(C)=C(C(=O)OC(C)C)C1c1cccc([N+](=O)[O-])c1 (configuration not stated); true
C[C@H]1C[C@H]2[C@@H]3CCC4=CC(=O)C=C[C@]4(C)[C@@]3(F)[C@@H](O)C[C@]2(C)[C@@]1(O)C(=O)CO; false
CCCCC/C=C\C/C=C\CCCCCCCC(=O)O; false
CC(C)N=c1cc2n(-c3ccc(Cl)cc3)c3ccccc3nc-2cc1Nc1ccc(Cl)cc1; false
Nc1c(Br)cc(Br)cc1CNC1CCC(O)CC1 (configuration not stated); false
COCC(=O)Nc1cc(Sc2ccccc2)ccc1N=C(NC(=O)OC)NC(=O)OC; false

----------
Reported max response values follow for various compounds
Tested on: HaCat
Method description: Cytotoxic Profiling of Annotated Libraries Using Quantitative High-Throughput Screening (AID 1296008); further: nearly all actives have a fitted effect of over 60% in size; on max response: on the % scale 0 is the no-effect control and ±100 the full control effect
Condition notes: Five cell lines viability, CellTiter-Glo ATP luminescence, 48-72 h; active compounds read low
Inconclusive results are not listed. Calls of active or inactive are those of the source. The call rests on the fitted dose curve; in most records, active means well fitted inhibition curve with a large enough effect; inconclusive means small, poorly fitted or top-dose-only effect; inactive means flat fitted curve, though single readings scatter.
Endpoint: max response

COc1c(C)c(C(=O)c2ccc(N)c(C(=O)O)c2)n2ccccc12; -0.372% (inactive)
C=C1CC2C3(C)C(O)CC(=O)C(C)(C)C3C(OC(C)=O)C(OC(C)=O)C2(C)C2C(=O)OC(C)(C(=O)OC)C(=O)C12C (centres undefined); 3.78% (inactive)
C=Cc1cc(O)cc2nc(-c3ccc(O)c(F)c3)oc12; -8.75% (inactive)
CC(=O)OC1C(O)CC(O[C@@H]2O[C@H](CO)[C@@H](O)[C@H](O)[C@H]2O)C2CCC3C(=O)OC(c4ccoc4)CC3(C)C21 (some centres undefined); -6.02% (inactive)

----------
Test system: Zika virus NS2B-NS3 protease (linked construct)
Method description: Primary screen NINDS Rhodamine qHTS for Zika virus inhibitors (AID 1347160); further: nearly all actives have a fitted effect of over 55% in size
Condition notes: purified NS2B-NS3 protease, Rhodamine110 substrate fluorescence; series mostly up to 57.1 µM
Results filed as inconclusive are left out. Calls of active or inactive are those of the source. Calls follow the shape of the dose curve; as a rule, active = well fitted inhibition curve with a large enough effect; inconclusive = small, poorly fitted or top-dose-only effect; inactive = no such curve, though single readings can be large or run the other way.
Possible outcomes: class 1 for active, class 0 for inactive

CC1CCC2C(C)(C)C(O)CCC2(C)C12Cc1c(O)cc3c(c1O2)CN(C(CCC(N)=O)C(=O)O)C3=O (stereo not given); class 0
COc1cc(C/C(=C/NC(C)=O)N(CC(=O)Cc2ccccc2)C(C)=O)cc2c1OCO2; class 0
CC12CCC3c4ccc(O)cc4CCC3C1CCC2OC1OC(C(=O)O)C(O)C(O)C1O (stereo not given); class 0
C=C[C@](C)(CC/C=C(\C)C(=O)O)O[C@@H]1OC[C@H](O)[C@H](O)[C@H]1O; class 1
Cc1ccc(Sc2cncc3sc(C(N)=O)cc23)cc1; class 0
CCOC(=O)[C@H]1O[C@@H]1C(=O)N[C@@H](CC(C)C)C(=O)NCCC(C)C; class 0
CC1=CCC2C(C)(CO)CCCC2(CO)C1CO (stereo not given); class 1
CC1CCC2(C)C(CC(O)C(O)C23CO3)C1(C)CCC1=CC(=O)OC1O (stereo not given); class 0
COc1ccccc1[C@@H]1C2=C(CC(C)(C)CC2=O)Nc2n[nH]c(C(F)(F)F)c21; class 0
C(#Cc1cccc(CN2CCOCC2)c1)CCN1CCCCC1; class 0
C/C(=C\CO)CC/C=C(\C)C(=O)O[C@H]1[C@H](OC2OC=C(C(=O)O)C3CCC(C)(O)C23)O[C@H](CO)[C@@H](O)[C@@H]1O (stereo not given in full); class 0
COc1cc(O[C@@H]2O[C@H](CO)[C@@H](O)[C@H](O)[C@H]2O)c(CCC(=O)OC[C@H]2O[C@@H](Oc3cc(OC)c(C4OC(=O)C(C)(O)C4O)cc3CCC(=O)O)[C@H](O)[C@@H](O)[C@@H]2O)cc1C1OC(=O)C(C)(O)C1O (stereo not given in full); class 0
OCc1ccccc1O[C@@H]1O[C@H](CO)[C@@H](O)[C@H](O)[C@H]1O; class 0
COC1=CC(=O)O[C@@H](CCc2ccccc2)[C@@H]1O; class 0
O=C(NCC(=O)N1CC[C@H](NC2CCC(O)(c3ccc(-c4ncccn4)cn3)CC2)C1)c1cccc(C(F)(F)F)c1 (stereo not given in full); class 0
CC1NC(=O)C(Cc2c[nH]c3ccccc23)NC1=O (stereo not given); class 0
COc1cc2c(cc1O)C1(Cc3ccc4c(c3C1=O)OCO4)N(C)CC2 (stereo not given); class 0
CC(C)C(C#N)O[C@@H]1O[C@H](CO[C@@H]2OC[C@](O)(CO)[C@H]2O)[C@@H](O)[C@H](O)[C@H]1O (stereo not given in full); class 0
CNC(=O)Nc1ccc(OC)c(NC(=O)NC(=O)c2cc(F)c(F)cc2Cl)c1; class 0
COc1cc(C2c3cc(O)c(OC)cc3CC(CO)C2CO)ccc1O (stereo not given); class 0
CC(=O)O[C@@]1(C)C[C@@H](O)[C@]2(O)C=CO[C@@H](O[C@@H]3O[C@H](CO)[C@@H](O)[C@H](O)[C@H]3O)[C@@H]21; class 0
CC(C)[C@@H](C)/C=C/[C@@H](C)[C@H]1CC[C@H]2C3=CC=C4C[C@@H](O)CC[C@]4(C)[C@H]3CC[C@]12C; class 0
CCOc1nc2cccc(C(=O)O)c2n1Cc1ccc(-c2ccccc2-c2noc(=O)[nH]2)cc1; class 0
C=C1[C@H]2[C@H](O[C@@H]3O[C@H](COC(=O)/C=C/c4cc(OC)c(O)c(OC)c4)[C@@H](O)[C@H](O)[C@H]3O)OC=C(C(=O)O)[C@H]2C[C@@H]1O; class 0
CN(NC(=O)CC(=O)NN(C)C(=S)c1ccccc1)C(=S)c1ccccc1; class 0
COc1cc(/C=C/C(=O)OC(C)(C)C(OC2OC(CO)C(O)C(O)C2O)C(=O)OCc2ccc(OC3OC(CO)C(O)C(O)C3O)cc2)ccc1O (stereo not given); class 0
CCOc1ccc(-c2ccc(Cn3c(CC(C)(C)C(=O)O)c(SC(C)(C)C)c4cc(OCc5ccc(C)cn5)ccc43)cc2)cn1; class 1
CC1(C)CC2C(O)C3=C(CC(C)(O)C2C1)C(=O)OC3O (stereo not given); class 0
COc1cc(/C=C/C(=O)OC2[C@H](O)CC(O)(C(=O)O)C[C@H]2O)ccc1O (stereo not given in full); class 0
c1ccc(C(OC2CCN(CCCc3nn[nH]n3)CC2)c2ccccc2)cc1; class 0
